Target: T1, Insulin receptor prepared according to Bass et al., 1996: soluble human insulin receptor-immunoglobulin heavy … (human, UniProt P06213 28-956)
T1 construct: extracellular domain; Eu3+-labelled in TR-FRET; also called IR; sIR-Fc; not shown: immunoglobulin heavy chain constant domains that replace the transmembrane and i
Test: phage ELISA, vs IGF-1R
Positions of bridges follow the written chain, without caps; N, C: chain ends. No end group written: not given here.
Quantity Kind: IR/IGF-1R Comparison (ratio)

>>> number("PAGPCGFYCGLGLLLHGDQSP (disulfide 5-9 (inferred)) [20E2B-4-H8-IGFR]")
0.2
>>> number("VEGRGLFYDLLRQLLARRQNG [20E2B-3-C6-IGFR]")
0.1
>>> number("SSIGGGFHENFYDWFSRQLSQSPPLK [N2CA-4-F7-IGFR]")
0.2
>>> number("AETSVQVGWIRLQSVWPGEHWNTVDPFYHKLSELLRGSGA [B6L-4-D7-IR]")
0.3
